# Procedure summary: Stability in human liver microsomes assessed as parent compound remaining at 0.5 uM in presence of NADPH after 30 mins by LC/MS/MS analysis
# Assay type: ADME, microsome
# Assay context: read-out: Stability
Catalogue of remaining at 0.5 h, 0.5 µM readings, one per entry.
Write down the numeric answer in % and omit the unit.

Worked cases, remaining at 0.5 h, 0.5 µM given:
INSERT INTO assay_data (smiles, unit_abbrev, reported) VALUES
  ('Cc1nc(C)c(-c2nsc(Nc3ccc(C(=O)N4C5CCC4CN(c4ncc(C(F)(F)F)cn4)C5)cn3)n2)s1', '%', 85.2),
  ('Cc1nc(C)c(-c2csc(Nc3ccc(C(=O)N4C5CCC4CN(c4ncccn4)C5)cn3)n2)s1', '%', 8.5),
  ('Cc1nc(C)c(-c2csc(Nc3ccc(C(=O)N4C5COCC4CN(c4ncc(C(F)(F)F)cn4)C5)cn3)n2)s1', '%', 79.8),
  ('Cc1nc(C)c(-c2csc(Nc3ccc(C(=O)N4C5CCC4CN(c4ncc(F)cn4)C5)cn3)n2)s1', '%', 38.4),
  ('Cc1nc(C)c(-c2csc(Nc3ccc(C(=O)N4CCN(c5ncc(C(F)(F)F)cn5)CC4)cn3)n2)s1', '%', 77.5),
  ('Cc1nc(C)c(-c2csc(Nc3ccc(C(=O)N4C5CCC4CN(c4ncc(C(=O)O)cn4)C5)cn3)n2)s1', '%', 86.2),
  ('Cc1nn(C)cc1-c1nsc(Nc2ccc(C(=O)N3C4CCC3CN(c3ncc(C(F)(F)F)cn3)C4)cn2)n1', '%', 96.7);

Below: the item to evaluate.
The reported remaining at 0.5 h, 0.5 µM of the compound `Cc1nc(C)c(-c2csc(Nc3ccc(C(=O)N4C5CCC4CN(c4ncc(S(C)(=O)=O)cn4)C5)cn3)n2)s1` was 52.7
